B1: library; numbered along this chain (parent)
chain: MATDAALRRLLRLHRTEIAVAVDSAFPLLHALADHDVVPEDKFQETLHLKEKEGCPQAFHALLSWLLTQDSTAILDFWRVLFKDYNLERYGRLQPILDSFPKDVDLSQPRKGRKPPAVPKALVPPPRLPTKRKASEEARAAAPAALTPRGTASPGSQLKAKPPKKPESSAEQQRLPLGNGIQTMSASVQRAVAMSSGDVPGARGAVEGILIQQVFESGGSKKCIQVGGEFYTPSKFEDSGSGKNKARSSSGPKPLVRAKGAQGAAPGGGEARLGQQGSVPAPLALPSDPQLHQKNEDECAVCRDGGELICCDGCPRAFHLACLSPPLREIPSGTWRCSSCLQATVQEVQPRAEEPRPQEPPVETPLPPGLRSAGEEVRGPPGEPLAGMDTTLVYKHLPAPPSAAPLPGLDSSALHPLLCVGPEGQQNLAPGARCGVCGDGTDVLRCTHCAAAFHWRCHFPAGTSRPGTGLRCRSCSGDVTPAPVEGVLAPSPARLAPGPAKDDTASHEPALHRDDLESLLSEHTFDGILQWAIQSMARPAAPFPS

Variants of: B1
Assay Overview: AIRE transcriptional activation functional score (insulin promoter-GFP; nonsense median 0, synonymous median 1) (normalised score); higher = higher AIRE activity (more reporter activation)
Experimental Context: with insulin promoter-GFP reporter in HEK293
Please provide measured AIRE transcriptional activation functional score for the entries that follow.
One number for each entry.

Known results for variants:
S518G :: 0.666
D98T :: -0.235
L495K :: 0.745
V192N :: 0.244
C457Y :: 0.105
K245Q :: 0.887

Please supply AIRE transcriptional activation functional score for each of the following items, keeping them in order.
1. S338W
2. A489I

[out]
1: 0.904; 2: 0.859

Each recorded value in this set is attributed to the supplement of paper PMC12667976.
